# system: T1, human DLL3 expressed on the surface of cells (human, UniProt Q9NYJ7 27-618)
# T1 construct: Stably transfected CHO or HEK293 cells; also called huDLL3; hDLL3
# T1 sequence: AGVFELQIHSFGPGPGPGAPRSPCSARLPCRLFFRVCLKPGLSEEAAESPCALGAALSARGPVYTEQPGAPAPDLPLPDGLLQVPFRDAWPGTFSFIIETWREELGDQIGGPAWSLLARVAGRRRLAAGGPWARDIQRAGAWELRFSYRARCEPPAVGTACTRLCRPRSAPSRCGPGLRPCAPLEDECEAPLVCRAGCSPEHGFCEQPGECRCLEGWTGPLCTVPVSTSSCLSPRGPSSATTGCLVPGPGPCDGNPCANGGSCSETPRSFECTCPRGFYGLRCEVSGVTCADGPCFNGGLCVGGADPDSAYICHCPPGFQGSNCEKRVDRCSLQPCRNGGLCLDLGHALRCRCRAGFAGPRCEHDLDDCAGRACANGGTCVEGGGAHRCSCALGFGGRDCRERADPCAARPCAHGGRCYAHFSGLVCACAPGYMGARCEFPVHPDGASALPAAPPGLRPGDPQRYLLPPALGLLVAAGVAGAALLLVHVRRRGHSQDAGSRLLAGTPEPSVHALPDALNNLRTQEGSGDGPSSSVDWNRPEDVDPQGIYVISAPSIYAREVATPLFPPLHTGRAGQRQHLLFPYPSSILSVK
# protocol.text: phage cell ELISA/FACS on DLL3-expressing cells;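 also: phages incubated 1 h at room temperature with cells overexpressing human DLL3, read by flow cytometry fluorescence, then fixed-cell ELISA with anti-M13-HRP at A370 nm, parental cells alongside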
Bridge positions count the residues as written; N and C are the ends. Ends that are not written are not given here.
observable: binding result

AETVEFYGCETYSGGWTCLW (not shown: M13 pIII coat protein) [SEQ ID NO 56]: binds
AETVEFWSCQLGSGWWTCAW (not fully specified (bridges); cysteine pairing not given here, not shown: M13 pIII coat protein) [SEQ ID NO 71]: binds
AETVEFWDCWGNTDDWTCTW (not shown: M13 pIII coat protein) [SEQ ID NO 41]: binds
AETVEFCRAYSNWFYIC (disulfide 7-17 (inferred); not fully specified (C-terminus), not shown: M13 pIII coat protein) [SEQ ID NO 76]: binds
AETVEFLGCHGDNSEWTCVW (not shown: M13 pIII coat protein) [SEQ ID NO 43]: binds
AETVEFYGCQYYGWDYTCAW (not shown: M13 pIII coat protein) [SEQ ID NO 60]: binds
AETVEFYGCYGDRNDYTCTW (not shown: M13 pIII coat protein) [SEQ ID NO 42]: binds
AETVEFDYCYGDVEEWTCVY (not shown: M13 pIII coat protein) [SEQ ID NO 55]: binds

Need binding result for each of these binders.
1. AETVEFWTCHGNADEWTCSW (not shown: M13 pIII coat protein) [SEQ ID NO 52]
2. AETVEFYGCTGDAYEYTCTW (not shown: M13 pIII coat protein) [SEQ ID NO 45]
3. AETVEFYGCDLWKGWTVCGY (not fully specified (bridges); cysteine pairing not given here, not shown: M13 pIII coat protein) [SEQ ID NO 67]
4. AETVEFWSCKWWGGAADEYTYSCGW (not shown: M13 pIII coat protein) [SEQ ID NO 44]
5. AETVEFWTCYWTEGVSGCRW (not shown: M13 pIII coat protein) [SEQ ID NO 46]

Completion:
binds
binds
binds
binds
binds

Need binding result for each of these binders.
1. AETVEFYGCWGNYNDYTCSW (not shown: M13 pIII coat protein) [SEQ ID NO 61]
2. AETVEFDGCKGDWYEWTCWW (not shown: M13 pIII coat protein) [SEQ ID NO 53]

Completion:
1. binds
2. binds
